# test-system: T1, PUF4 RNA-binding domain (Saccharomyces cerevisiae, UniProt P25339 537-888)
# T1 sequence: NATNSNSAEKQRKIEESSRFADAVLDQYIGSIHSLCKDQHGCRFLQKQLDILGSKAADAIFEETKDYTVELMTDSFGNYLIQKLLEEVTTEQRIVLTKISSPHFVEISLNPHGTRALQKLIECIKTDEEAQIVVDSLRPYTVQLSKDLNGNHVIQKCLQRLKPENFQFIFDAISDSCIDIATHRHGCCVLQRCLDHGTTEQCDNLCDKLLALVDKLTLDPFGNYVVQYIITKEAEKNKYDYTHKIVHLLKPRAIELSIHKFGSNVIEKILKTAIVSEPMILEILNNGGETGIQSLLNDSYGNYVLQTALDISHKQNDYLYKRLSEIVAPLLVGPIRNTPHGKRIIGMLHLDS
# measurement-notes: Mg; RNA-MaP; 20 mM Na-HEPES pH 7.4, 30 mM KOAc, 0.75 mM MgCl2, 0.1% Tween-20, 5% glycerol, 0.1 mg/mL BSA, 2 mM DTT; 25 C; 0.0125-409.6 nM protein
# condition: tags: N-His6-TEV cleaved; C-SNAP kept, Cy3B-labelled; label: tethered on chip by stalled RNA polymerase
Documented Kd across a set of binders
Report the value in nM with no unit label.

# binder Ic_S2_P4E.1_K4.1_C4.1_H4.1_A4.1_[T5A]_[A6T]_[T7C]_F4.1_[T8C]_[A9G]_T4.1 (ssRNA) RNA: UUUGAUUAAUAUGAUAUCGUUCUUUCUUGUAAUCCGUUCUUUCUCGAUAUCAUAUUAAUCUUU ; its Kd = 648

# binder Ic_S2_P4E.1_K4.1_C4.1_H4.1_A4.1_[T5G]_[A6T]_[T7C]_F4.1_[T8G]_[A9C]_T4.1 (ssRNA) RNA: UUUGAUUAAUAUGAUAUCGUUCUUUCUUGUAGUCGCUUCUUUCUCGAUAUCAUAUUAAUCUUU ; its Kd = 598

# binder UCUCUUUGUAUUUAUUCUCUU (ssRNA) [Ic_S1_P4E.1_K4.1_C4.1_H4.1_A4.1_[A6T]_F4.1_[T8A]_[A9T]_T4.1] ; its Kd = 31.8

# binder Id_ii_S2_P4E.3_K4.2_C4.2_[C-2A]_H4.2_A4.1_F4.1_T4.2_[G10C] (ssRNA) RNA: UUUGAUUAAUAUGAUAUCGUUCUUUCUAUUAUAUAUUACUUUCUUUCUCGAUAUCAUAUUAAUCUUU ; its Kd = 14.2

# binder Id_iii_S2_P3E.5_K3.1_C3.3_[C-2G]_H3.1_A3.1_F3.1_T3.2 (ssRNA) RNA: UUUGAUUAAUAUGAUAUCGUUCUUUCUUGUUGUAUAUAUAUUCUUUCUCGAUAUCAUAUUAAUCUUU ; its Kd = 2.14

# binder Ic_S2_P4E.1_K4.1_C4.1_H4.1_A4.1_[T5G]_[A6T]_[T7C]_F4.1_[T8C]_[A9G]_T4.1 (ssRNA) RNA: UUUGAUUAAUAUGAUAUCGUUCUUUCUUGUAGUCCGUUCUUUCUCGAUAUCAUAUUAAUCUUU ; its Kd = 732

# binder UCUCUUUGUAUUAUUCCUUAUCUCUU (ssRNA) [Ie_S1_P5E.1_K5.1_C5.1_H5.1_A5.1_[+7TTCC]_F5.1_T5.1] ; its Kd = 13.8

# binder UCUCUUUGUAUUACCCUUUAUCUCUU (ssRNA) [Ie_S1_P5E.1_K5.1_C5.1_H5.1_A5.1_[+7CCCT]_F5.1_T5.1] ; its Kd = 304

# binder Id_ii_S4_P3E.3_K3.2_C3.2_[C-2T]_[T-1C]_H3.2_A3.1_F3.1_T3.2_[T9C] (ssRNA) RNA: UUUGACAACUGAUCGUUCUUUCUUCUAUAUAUACAUUCUUUCUCGAUCAGUUGUCUUU ; its Kd = 252

# binder Ie_S2_P3E.2_K3.1_C3.2_H3.1_[+2CCTC]_A3.1_F3.1_T3.2 (ssRNA) RNA: UUUGAUUAAUAUGAUAUCGUUCUUUCUCUUGCCUCUAUAUAUAUUCUUUCUCGAUAUCAUAUUAAUCUUU ; its Kd = 162

# binder ACAAACGCUAUAUAUACUACAAAC (ssRNA) [Id_ii_S3_P3E.3_K3.2_C3.2_[C-2G]_[T-1C]_H3.2_A3.1_F3.1_T3.2_[T9C]_[A10T]] ; its Kd = 34.2

# binder UCUCUUUGUAAUACUUUCUCUU (ssRNA) [Ic_S1_P5E.1_K5.1_C5.1_H5.1_A5.1_[T5A]_F5.1_[T8C]_[A10T]_T5.1] ; its Kd = 212

# binder UCUCUUUGUAUAUAUAGUUCUCUU (ssRNA) [Id_ii_S1_P3E.3_K3.2_C3.2_[C-2T]_[T-1G]_H3.2_A3.1_F3.1_T3.2_[T9G]_[A10T]] ; its Kd = 2.33

# binder UCUCUUUCUUGUAUAUUAUUUCUCUU (ssRNA) [Id_iii_S1_P4E.5_K4.1_C4.3_H4.1_A4.1_F4.1_T4.2_[G10T]] ; its Kd = 0.649

# binder Ic_S4_P5E.1_K5.1_C5.1_H5.1_A5.1_[T5C]_F5.1_[T8A]_[T9A]_[A10T]_T5.1 (ssRNA) RNA: UUUGACAACUGAUCGUUCUUUCUUGUACUAAAUUUCUUUCUCGAUCAGUUGUCUUU ; its Kd = 18.5

# binder Ie_S2_P5E.1_K5.1_C5.1_H5.1_A5.1_[+7TCTC]_F5.1_T5.1 (ssRNA) RNA: UUUGAUUAAUAUGAUAUCGUUCUUUCUUGUAUUAUCUCUUAUUCUUUCUCGAUAUCAUAUUAAUCUUU ; its Kd = 18.3

# binder Id_iii_S2_P4E.7_K4.3_C4.3_H4.3_A4.1_F4.1_T4.2_[G10C] (ssRNA) RNA: UUUGAUUAAUAUGAUAUCGUUCUUUCUUCUACACUAUUACUUUCUUUCUCGAUAUCAUAUUAAUCUUU ; its Kd = 494

# binder Ie_S2_P5E.1_K5.1_C5.1_H5.1_[+1CTT]_A5.1_F5.1_T5.1 (ssRNA) RNA: UUUGAUUAAUAUGAUAUCGUUCUUUCUUCUUGUAUUAUUAUUCUUUCUCGAUAUCAUAUUAAUCUUU ; its Kd = 1.16

# binder Ic_S4_P4E.1_K4.1_C4.1_H4.1_A4.1_[A6C]_F4.1_[T8G]_[A9G]_T4.1 (ssRNA) RNA: UUUGACAACUGAUCGUUCUUUCUUGUAUCUGGUUCUUUCUCGAUCAGUUGUCUUU ; its Kd = 89.5

# binder UCUCUUUGUACUAAAUCUCUU (ssRNA) [Ic_S1_P4E.1_K4.1_C4.1_H4.1_A4.1_[T5C]_[A6T]_[T7A]_F4.1_[T8A]_T4.1] ; its Kd = 69.7

# binder UCUCUUAGUGUAUAUAGUUCUCUU (ssRNA) [Id_ii_S1_P3E.2_K3.1_C3.2_[C-2A]_[T-1G]_H3.1_A3.1_F3.1_T3.2_[T9G]_[A10T]] ; its Kd = 6.52

# binder Ic_S4_P5E.1_K5.1_C5.1_H5.1_A5.1_[T5A]_[A7T]_F5.1_[T8A]_[T9G]_[A10C]_T5.1 (ssRNA) RNA: UUUGACAACUGAUCGUUCUUUCUUGUAAUUAGCUUCUUUCUCGAUCAGUUGUCUUU ; its Kd = 338
